Kindly state Activity for each of the entries shown.
molecular target: Mu-type opioid receptor (Rattus norvegicus); experiment: Agonist activity at rat mu-opioid receptor expressed in C6 cell membrane assessed as [35S]GTPgammaS binding for 1 hr by liquid scintillation counting analysis relative to 10 uM DAMGO; type: functional, cell membranes

Q: Param item = Cc1cc(O)cc(C)c1C[C@H](N)C(=O)N[C@@H]1CCNc2ccc(Cc3cccc4ccccc34)cc21 ; retrieve measured Activity.
Result: 93%

Q: What would you report for CC(=O)N1CC[C@@H](NC(=O)[C@@H](N)Cc2c(C)cc(O)cc2C)c2cc(Cc3ccc4ccccc4c3)ccc21 ?
Result: 87%

Q: Also Cc1cc(O)cc(C)c1C[C@H](N)C(=O)N[C@@H]1CCNc2ccc(CC3Cc4ccccc4C3)cc21 ?
Result: 86%

Q: Now consider CC(=O)N1CC[C@@H](NC(=O)[C@@H](N)Cc2c(C)cc(O)cc2C)c2cc(CC3CCc4ccccc43)ccc21 (mixture of isomers) .
Result: 39%

Q: Next entry: Cc1cc(O)cc(C)c1C[C@H](N)C(=O)N[C@@H]1CCNc2ccc(Cc3ccc4ccccc4c3)cc21
Result: 96%

Q: Same question for Cc1cc(O)cc(C)c1C[C@H](N)C(=O)N[C@@H]1CCCc2ccc(Cc3ccc4ccccc4c3)cc21 please.
Result: 72%

* * *

biological target: Delta-type opioid receptor (Rattus norvegicus); experiment: Agonist activity at rat delta-opioid receptor expressed in C6 cell membrane assessed as [35S]GTPgammaS binding for 1 hr by liquid scintillation counting analysis relative to 10 uM DPDPE; type: functional, cell membranes
The source made the active and inactive calls. The rule behind the calls is not given here.
ASSAY METRIC: Activity

Cc1cc(O)cc(C)c1C[C@H](N)C(=O)N[C@@H]1CCNc2ccc(Cc3ccc4ccccc4c3)cc21 inactive
Cc1cc(O)cc(C)c1C[C@H](N)C(=O)N[C@@H]1CCCc2ccc(Cc3cccc4ccccc34)cc21 inactive
CC(=O)N1CC[C@@H](NC(=O)[C@@H](N)Cc2c(C)cc(O)cc2C)c2cc(Cc3cccc4ccccc34)ccc21 inactive

* * *

Please go through the items and note down their pEC50.
molecular target: UniProt P33535; experiment: Agonist activity at rat mu-opioid receptor expressed in C6 cell membrane assessed as [35S]GTPgammaS binding for 1 hr by liquid scintillation counting analysis; format: functional, cell membranes; details: read-out: EC50
Hey, just a heads up that pEC50 is the negative log base 10 of the concentration in molar.

Q: Given the molecule CC(=O)N1CC[C@@H](NC(=O)[C@@H](N)Cc2c(C)cc(O)cc2C)c2cc(CC3Cc4ccccc4C3)ccc21 , what is its reported pEC50?
Result: 9.25

Q: Follow-up item: Cc1cc(O)cc(C)c1C[C@H](N)C(=O)N[C@@H]1CCCc2ccc(Cc3ccccc3)cc21
Result: 8.54

Q: Try Cc1cc(O)cc(C)c1C[C@H](N)C(=O)N[C@@H]1CCNc2ccc(CC3CCc4ccccc43)cc21 (mixture of isomers) next.
Result: 8.05

* * *

species: Rattus norvegicus; test: Selectivity ratio, ratio of Ki for rat delta-opioid receptor to Ki for rat mu-opioid receptor
ASSAY METRIC: Ratio Ki
Reply with just the number.

Q: Name the reported Ratio Ki value associated with the compound Cc1cc(O)cc(C)c1C[C@H](N)C(=O)N[C@@H]1CCNc2ccc(CC3CCCCC3)cc21
Result: 79

Q: Same read-out for CC(=O)N1CC[C@@H](NC(=O)[C@@H](N)Cc2c(C)cc(O)cc2C)c2cc(Cc3ccccc3)ccc21 ?
Result: 14

Q: Then what about the compound CC(=O)N1CC[C@@H](NC(=O)[C@@H](N)Cc2c(C)cc(O)cc2C)c2cc(Cc3cccc4ccccc34)ccc21 ?
Result: 22

Q: Try the compound Cc1cc(O)cc(C)c1C[C@H](N)C(=O)N[C@@H]1CCCc2ccc(CC3CCCCC3)cc21
Result: 117

Q: Next record, please: CC(=O)N1CC[C@@H](NC(=O)[C@@H](N)Cc2c(C)cc(O)cc2C)c2cc(CC3CCCCC3)ccc21
Result: 11

* * *

target: Delta-type opioid receptor (Rattus norvegicus) (UniProt P33533); test: Agonist activity at rat delta-opioid receptor expressed in C6 cell membrane assessed as [35S]GTPgammaS binding for 1 hr by liquid scintillation counting analysis relative to 10 uM DPDPE; type: functional, cell membranes
Sequence (P33533 whole entry): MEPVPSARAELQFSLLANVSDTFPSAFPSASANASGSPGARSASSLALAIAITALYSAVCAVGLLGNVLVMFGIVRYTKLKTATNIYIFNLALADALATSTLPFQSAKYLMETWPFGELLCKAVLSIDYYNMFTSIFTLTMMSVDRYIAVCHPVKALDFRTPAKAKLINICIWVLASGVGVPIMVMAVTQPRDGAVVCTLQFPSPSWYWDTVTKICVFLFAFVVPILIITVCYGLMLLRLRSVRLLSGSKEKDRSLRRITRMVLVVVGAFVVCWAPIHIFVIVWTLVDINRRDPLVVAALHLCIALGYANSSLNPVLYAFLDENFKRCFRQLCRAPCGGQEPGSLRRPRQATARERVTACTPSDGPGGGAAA
The source made the active and inactive calls. The calls are words filed in the database; no cut-off is given here.
ASSAY METRIC: Activity

Cc1cc(O)cc(C)c1C[C@H](N)C(=O)N[C@@H]1CCNc2ccc(CC3CCCCC3)cc21 inactive
CC(=O)N1CC[C@@H](NC(=O)[C@@H](N)Cc2c(C)cc(O)cc2C)c2cc(Cc3ccccc3)ccc21 26%
Cc1cc(O)cc(C)c1C[C@H](N)C(=O)N[C@@H]1CCCc2ccc(CC3CCCCC3)cc21 inactive
Cc1cc(O)cc(C)c1C[C@H](N)C(=O)N[C@@H]1CCNc2ccc(Cc3cccc4ccccc34)cc21 15%

* * *

target: Mu-type opioid receptor (Rattus norvegicus, UniProt P33535); assay: Agonist activity at rat mu-opioid receptor expressed in C6 cell membrane assessed as [35S]GTPgammaS binding for 1 hr by liquid scintillation counting analysis; type: functional, cell membranes; settings: read-out: EC50
Sequence (P33535 whole entry): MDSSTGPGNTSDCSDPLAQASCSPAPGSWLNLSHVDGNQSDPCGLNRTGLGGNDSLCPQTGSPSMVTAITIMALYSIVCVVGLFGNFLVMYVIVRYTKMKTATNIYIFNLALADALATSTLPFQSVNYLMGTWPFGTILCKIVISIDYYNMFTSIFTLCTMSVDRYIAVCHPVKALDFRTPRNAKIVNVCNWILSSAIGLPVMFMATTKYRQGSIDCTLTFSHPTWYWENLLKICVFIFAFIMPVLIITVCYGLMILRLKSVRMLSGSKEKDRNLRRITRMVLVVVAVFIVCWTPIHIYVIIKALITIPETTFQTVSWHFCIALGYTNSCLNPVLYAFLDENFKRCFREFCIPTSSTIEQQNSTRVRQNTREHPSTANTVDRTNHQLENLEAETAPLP
Please respond with reported EC50 for every item in the list.
Quick note: give the figure in nM, leave out the unit.

Q: Item under review: CC(=O)N1CC[C@@H](NC(=O)[C@@H](N)Cc2c(C)cc(O)cc2C)c2cc(CC3CCc4ccccc43)ccc21 (mixture of isomers) . Reported EC50?
Result: 15

Q: Ok, now CC(=O)N1CC[C@@H](NC(=O)[C@@H](N)Cc2c(C)cc(O)cc2C)c2cc(Cc3cccc4ccccc34)ccc21
Result: 0.48

Q: Here is the next molecule: Cc1cc(O)cc(C)c1C[C@H](N)C(=O)N[C@@H]1CCCc2ccc(Cc3cccc4ccccc34)cc21
Result: 14

Q: What do we get for Cc1cc(O)cc(C)c1C[C@H](N)C(=O)N[C@@H]1CCCc2ccc(Cc3ccc4ccccc4c3)cc21 ?
Result: 4.4

Q: Query CC(=O)N1CC[C@@H](NC(=O)[C@@H](N)Cc2c(C)cc(O)cc2C)c2cc(CC3CCCCC3)ccc21 next
Result: 0.61

Q: # iterate: Cc1cc(O)cc(C)c1C[C@H](N)C(=O)N[C@@H]1CCNc2ccc(CC3CCCCC3)cc21
Result: 2.6

Q: Next record, please: CC(=O)N1CC[C@@H](NC(=O)[C@@H](N)Cc2c(C)cc(O)cc2C)c2cc(Cc3ccccc3)ccc21
Result: 6

Q: Now try CC(=O)N1CC[C@@H](NC(=O)[C@@H](N)Cc2c(C)cc(O)cc2C)c2cc(Cc3ccc4ccccc4c3)ccc21 .
Result: 0.93

* * *

molecular target: Delta-type opioid receptor (Rattus norvegicus) (UniProt P33533); assay: Agonist activity at rat delta-opioid receptor expressed in C6 cell membrane assessed as [35S]GTPgammaS binding for 1 hr by liquid scintillation counting analysis relative to 10 uM DPDPE; format: functional, cell membranes
Active and inactive are the calls of the source. The calls are words filed in the database; no cut-off is given here.
ASSAY METRIC: Activity

CC(=O)N1CC[C@@H](NC(=O)[C@@H](N)Cc2c(C)cc(O)cc2C)c2cc(CC3Cc4ccccc4C3)ccc21 inactive
CC(=O)N1CC[C@@H](NC(=O)[C@@H](N)Cc2c(C)cc(O)cc2C)c2cc(Cc3ccc4ccccc4c3)ccc21 inactive
CC(=O)N1CC[C@@H](NC(=O)[C@@H](N)Cc2c(C)cc(O)cc2C)c2cc(CC3CCCCC3)ccc21 26%
Cc1cc(O)cc(C)c1C[C@H](N)C(=O)N[C@@H]1CCNc2ccc(CC3Cc4ccccc4C3)cc21 inactive

* * *

molecular target: Delta-type opioid receptor (Rattus norvegicus); experiment: Agonist activity at rat delta-opioid receptor expressed in C6 cell membrane assessed as [35S]GTPgammaS binding for 1 hr by liquid scintillation counting analysis; assay type: functional, cell membranes; settings: read-out: EC50
ASSAY METRIC: pEC50
Schema: pEC50 number; meaning minus log10 of the concentration expressed in molar units.

Q: Using the record for CC(=O)N1CC[C@@H](NC(=O)[C@@H](N)Cc2c(C)cc(O)cc2C)c2cc(Cc3ccccc3)ccc21 , report its pEC50.
Result: 7.17

Q: Field entry: CC(=O)N1CC[C@@H](NC(=O)[C@@H](N)Cc2c(C)cc(O)cc2C)c2cc(CC3CCCCC3)ccc21
Result: 7.85

* * *

target: Delta-type opioid receptor (Rattus norvegicus, UniProt P33533); assay: Displacement of [3H]diprenorphine from rat delta-opioid receptor expressed in C6 cell membrane for 1 hr by liquid scintillation counting analysis
Sequence (P33533 whole entry): as the sequence (P33533 whole entry) above
Recorded Ki split into classes zone 1 (below 0.8 nM), zone 2 (0.8 nM to below 5 nM), zone 3 (5 nM or more)

Q: For Cc1cc(O)cc(C)c1C[C@H](N)C(=O)N[C@@H]1CCNc2ccc(CC3CCc4ccccc43)cc21 (mixture of isomers) , which Ki bin applies?
Result: zone 3

Q: Now try CC(=O)N1CC[C@@H](NC(=O)[C@@H](N)Cc2c(C)cc(O)cc2C)c2cc(Cc3cccc4ccccc34)ccc21 .
Result: zone 2

Q: Same thing, different molecule: Cc1cc(O)cc(C)c1C[C@H](N)C(=O)N[C@@H]1CCCc2ccc(CC3CCCCC3)cc21
Result: zone 3

Q: Entry to check: CC(=O)N1CC[C@@H](NC(=O)[C@@H](N)Cc2c(C)cc(O)cc2C)c2cc(CC3CCc4ccccc43)ccc21 (mixture of isomers)
Result: zone 2

Q: // repeat for CC(=O)N1CC[C@@H](NC(=O)[C@@H](N)Cc2c(C)cc(O)cc2C)c2cc(Cc3ccc4ccccc4c3)ccc21 and report
Result: zone 1

Q: Similarly, CC(=O)N1CC[C@@H](NC(=O)[C@@H](N)Cc2c(C)cc(O)cc2C)c2cc(CC3CCCCC3)ccc21 ?
Result: zone 1

Q: Let us now turn to Cc1cc(O)cc(C)c1C[C@H](N)C(=O)N[C@@H]1CCCc2ccc(Cc3ccc4ccccc4c3)cc21
Result: zone 3

Q: Repeat for the following molecule: Cc1cc(O)cc(C)c1C[C@H](N)C(=O)N[C@@H]1CCCc2ccc(Cc3ccccc3)cc21
Result: zone 2

Q: Lookup CC(=O)N1CC[C@@H](NC(=O)[C@@H](N)Cc2c(C)cc(O)cc2C)c2cc(Cc3ccccc3)ccc21
Result: zone 2

Q: # repeat for CC(=O)N1CC[C@@H](NC(=O)[C@@H](N)Cc2c(C)cc(O)cc2C)c2cc(CC3Cc4ccccc4C3)ccc21
Result: zone 1

Q: Could you do the same for Cc1cc(O)cc(C)c1C[C@H](N)C(=O)N[C@@H]1CCNc2ccc(CC3CCCCC3)cc21 , please?
Result: zone 2
